assay: Pharmacokinetic test in SD rats; type: in vivo; conditions: male, rat, plasma, iv, 1 mg/kg
Attribute measured: half-life

Quick note, half-life for O=C(O)c1ccc2c(c1)Oc1ccc(OCc3c(-c4ccccc4OC(F)(F)F)noc3C3CC3)nc1C1(CC1)C2 landed at 46.4 min

###

test: Pharmacokinetic test in SD rats; assay type: in vivo; details: male, rat, plasma, po, 5 mg/kg
Attribute measured: AUC(0-t) (ng·h/mL)
Return type: number; implicit unit ng·h/mL.

Quick note, AUC(0-t) for O=C(O)c1ccc2c(c1)Oc1ccc(OCc3c(-c4ccccc4OC(F)(F)F)noc3C3CC3)nc1C1(CC1)C2 [Example 3] landed at 6170
